Taken from ChEMBL document CHEMBL1158614.

- TEST_DETAILS: Apparent total oral clearance in Sprague-Dawley rat at 3 mg/kg, po
- Assay type: ADME, organism-based
- Parameters: dose 3 mg/kg, route oral
- SETTINGS: Sprague-Dawley, in vivo
MEASUREMENT_TYPE: CL/F (mL/min/kg)
Report the value in mL/min/kg with no unit label.

Record CN(C)C(=O)N1C[C@@H]2C[C@@](C)(NCC(=O)N3CCC[C@H]3C#N)C[C@@H]2C1 , field CL/F: 564

Reported CL/F ( CN(C)C(=O)N1C[C@H]2C[C@@H](NCC(=O)N3CCC[C@H]3C#N)C[C@H]2C1 ) = 190
